TESTED_ON: MMP2 (Homo sapiens, UniProt P08253)
ASSAY_METHOD_TEXT: MMP activity assay (fluorogenic substrate), MMP2 catalytic domain
Type: biochemical
TEST_SETTINGS: Table 2; read-out: MMP2 IC50
Procedure: MMP activity assays were conducted as follows: MMP2, MMP9, MMP13 catalytic domain was expressed in E. coli in form of inclusion bodies followed by refolding and purification. The Protocol of the Activity Assay: Stock solution of substrate (Mca-Lys-Pro-Leu-Gly-Leu-Dpa-Ala-Arg-NH2) was prepared in DMSO at a concentration of 6 mM. […] The reactions were started by the addition of MMP substrate, and the fluorescence intensity changes were measured after 60 minutes. […]
pIC50: −log10 of the molar value. Structures can show the parent of a compound that is named as a salt.
Returns True if the recorded pIC50 is greater than or equal to 4, and False otherwise.

compound=O=C(O)c1csc(CN(Cc2ccc(OCc3ccncc3)cc2)Cc2cccnc2)n1 tested_on="MMP2 (Homo sapiens, UniProt P08253)" class=False
compound="O=C(O)c1c[nH]c(CN(Cc2ccc(F)cc2)Cc2ccc(OCc3ccccc3)cc2)n1 [Compound 30 HCl]" tested_on="MMP2 (Homo sapiens, UniProt P08253)" class=True
compound=FC(F)(F)c1cnc(-c2ccccc2)[nH]1 tested_on="MMP2 (Homo sapiens, UniProt P08253)" class=False
compound=O=C(O)c1cnc(CCc2ccccc2)[nH]1 tested_on="MMP2 (Homo sapiens, UniProt P08253)" class=False
compound=CCOC(=O)c1csc(CN(Cc2ccncc2)Cc2ccc(OCc3ccccc3)cc2)n1 tested_on="MMP2 (Homo sapiens, UniProt P08253)" class=False
compound=CCOC(=O)c1csc(CN(Cc2ccc(OCc3cccnc3)cc2)Cc2cccnc2)n1 tested_on="MMP2 (Homo sapiens, UniProt P08253)" class=False
compound=O=C(O)c1csc(CN(Cc2ccc(OCc3ccccc3)cc2)Cc2cccc(F)c2)n1 tested_on="MMP2 (Homo sapiens, UniProt P08253)" class=True

From: patent US9487462B2
